protocol summary: reversal of MRP1-mediated doxorubicin resistance, pilot screen, H69AR cells, doxorubicin co-treatment (AID 601)
stated conditions: H69AR cells + 2 uM doxorubicin, CellTiter-Glo, 72 h; measured here: viability with 2 uM doxorubicin; at 10 µM; stronger effect = lower value
Quick list: viability per entry.
Write it as a number; the unit % goes unstated.

Consider the worked cases shown below.
{"columns": ["compound", "test value"],
 "data": [
  ["Cc1ccccc1N1C(N)=NC(N)=NC1(C)C", 91.5],
  ["CC(NC(=O)Cc1cccs1)c1ccc2c(c1)OCO2 (configuration not stated)", 86.2],
  ["COc1ccccc1N1CCN(Cc2nnnn2CCc2ccccc2)CC1", 89.7],
  ["Cc1nc2ccc(S(=O)(=O)NCC(=O)O)cc2s1", 101],
  ["O=C1CCC(=O)N1OCCCCOc1ccccc1", 91]
]}

Exercise: Endpoint output: viability of Cc1c(C(=O)OCC(C)(C)CN(C)C)oc2ccccc12 . Value?
Solution: 84.3

Exercise: Endpoint output: viability of Cn1c(=O)n(C)c2cc(CNc3ccc(N4CCOCC4)c(C(=O)O)c3)ccc21 . Value?
Solution: 92.2
